Where do the numbers come from? From patent US20240109962A1.

# MEASUREMENT TARGET: LILRB2 antigen of the ELISA of Table 5 (format not specified) (UniProt Q8N423 22-460, limits assumed)
# Sequence (Q8N423 22-460 limits assumed): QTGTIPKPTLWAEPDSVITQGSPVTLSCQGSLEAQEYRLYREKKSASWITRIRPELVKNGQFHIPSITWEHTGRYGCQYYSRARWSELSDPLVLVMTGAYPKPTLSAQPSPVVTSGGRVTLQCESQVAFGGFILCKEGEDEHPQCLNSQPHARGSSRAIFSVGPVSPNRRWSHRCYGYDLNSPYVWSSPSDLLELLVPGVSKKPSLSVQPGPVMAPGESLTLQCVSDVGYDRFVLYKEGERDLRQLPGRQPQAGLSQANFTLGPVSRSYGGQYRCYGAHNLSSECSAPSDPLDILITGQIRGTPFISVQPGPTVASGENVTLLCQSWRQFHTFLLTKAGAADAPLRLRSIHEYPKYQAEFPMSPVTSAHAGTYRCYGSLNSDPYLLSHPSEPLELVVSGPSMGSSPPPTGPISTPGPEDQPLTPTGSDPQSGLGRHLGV
# ASSAY TEXT: ELISA, antibody titration
ATTRIBUTE MEASURED: Kd (nM)

[[record]]
binder = "Antibody 15A6 (antibody, V domains shown, Mouse hybridoma mAb purified from ascites) VH: EVKLVESGGDLVKPGGSLKLSCAASGFTFSTYGMSWVRQTPEKRLEWVATISGSNSYTYYPDSVKGRFTISRDNAKNNLYLQMSSLRSEDTALYYCTRHENGYYFYAMDYWGQGTSVTVSS VL: DVQITQSPSYLTASPGETITINCRSSKSITKYLAWYQEKPGKTNKLLIYSGSTLQSGIPSRFSGSGSGTDFTLTISSLEPEDFAMYYCQQHSEYPWTFGGGTRLEIK"
attribute_measured = "Kd"
assay_value = 0.725

[[record]]
binder = "Antibody 10D7 (antibody, V domains shown, Mouse hybridoma mAb purified from ascites) VH: EVKLVESGGGLVKPGGSLKLSCAASGFTFSSYGMSWVRQTPEKRLEWVATISGAFSYTYYPDSVKGRFTISRDNAKNNLYLQMSSLRSEDTAFYYCARHDNSLYYAMDYWGQGTSVTVSS VL: NVQITQSPSYLAASPGETITINCRTSKSITKYLAWYQEQPGKTNKLLIYSGSTLQSGIPSRFSGSGSGTDFTLTISSLEPEDFAMYYCQQHNEYPWTFGGGTKLEIK"
attribute_measured = "Kd"
assay_value = 0.705

[[record]]
binder = "Antibody 7G4 (antibody, V domains shown, Mouse hybridoma mAb purified from ascites) VH: QVQLKQSGPGLVQPSQSLSITCTVSGFSLATYGVHWVRQSPGKGLEWLGVMWRDGSTDYNAVFMSRLSITKDDSKSQVFFKMNSLQADDTAIYYCAKNPYLYGSSHYYAMDYWGQGTSVTVSS VL: DIVMTQSPSSLSVSAGEKVTMSCKSSQSLLNSENQKNYLAWYQQKPGQPPKLLIYGASTRESGVPDRFTGSGSGTDFTLTISSVQAEDLAVYYCQNDHIYPFTFGSGTKLEIK"
attribute_measured = "Kd"
assay_value = 1.53

